target: 5-LO (Solanum tuberosum, UniProt P37831); assay: Effect on 5-LO catalysed oxidation of arachidonic acid; format: biochemical; settings: preliminary experiment; purified enzyme; result in words
Sequence (P37831 whole entry, the tested form may be a part): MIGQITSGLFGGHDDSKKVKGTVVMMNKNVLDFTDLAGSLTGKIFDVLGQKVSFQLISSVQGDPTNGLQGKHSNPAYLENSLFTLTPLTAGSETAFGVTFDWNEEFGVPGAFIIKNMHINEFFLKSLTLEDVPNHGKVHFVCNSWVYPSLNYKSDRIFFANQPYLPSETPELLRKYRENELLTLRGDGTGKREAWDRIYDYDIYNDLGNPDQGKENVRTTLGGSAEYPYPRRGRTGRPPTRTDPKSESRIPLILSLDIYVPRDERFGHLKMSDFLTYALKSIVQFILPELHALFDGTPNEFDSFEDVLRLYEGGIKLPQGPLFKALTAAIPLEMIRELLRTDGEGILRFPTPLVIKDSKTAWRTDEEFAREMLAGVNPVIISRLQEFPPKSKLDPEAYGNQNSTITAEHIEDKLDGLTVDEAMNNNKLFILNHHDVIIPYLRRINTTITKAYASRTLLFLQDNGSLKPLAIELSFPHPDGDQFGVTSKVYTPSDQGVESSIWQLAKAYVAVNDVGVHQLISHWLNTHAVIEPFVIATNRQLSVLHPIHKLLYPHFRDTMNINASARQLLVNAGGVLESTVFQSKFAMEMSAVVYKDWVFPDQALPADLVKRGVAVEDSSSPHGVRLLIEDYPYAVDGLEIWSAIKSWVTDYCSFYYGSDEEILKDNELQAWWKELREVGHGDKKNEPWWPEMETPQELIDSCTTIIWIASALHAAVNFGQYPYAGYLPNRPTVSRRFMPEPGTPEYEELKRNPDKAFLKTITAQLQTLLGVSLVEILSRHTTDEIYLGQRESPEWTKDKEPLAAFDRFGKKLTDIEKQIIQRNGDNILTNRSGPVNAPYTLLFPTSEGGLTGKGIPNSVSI
endpoint.name: Effect on 5-LO catalysed oxidation of AA

## Input May I ask what Effect on 5-LO catalysed oxidation of AA has been recorded for CCCCC/C=C\C/C=C\C/C=C\C/C=C\CCCC[N+](=O)[O-] ?
## Output Nil

## Input May I ask what Effect on 5-LO catalysed oxidation of AA has been recorded for CCCCCCCCCCCCCCCCCC[N+](=O)[O-] ?
## Output Nil

## Input May I ask what Effect on 5-LO catalysed oxidation of AA has been recorded for CCCCCCCCCCCCCCCCCC(CCC(=O)O)(CCC(=O)O)[N+](=O)[O-] ?
## Output Nil
